protocol_description: Pharmacokinetic measurements in rats (intravenous and intra-tracheal dosing)
Assay type: in vivo
measurement_parameters: male, CD, plasma, iv; rat, i.v. dosing; read-out: Vss
observed_property: Vd (L/kg)

- input_smiles: "COC(=O)c1ccc2c(c1)NC(=O)/C2=C(\\Nc1ccc(C(=O)NOCCN(C)C)cc1)c1ccccc1"
  display_unit: "L/kg"
  Vd: 51

A. COC(=O)c1ccc2c(c1)NC(=O)/C2=C(\Nc1ccc(C(=O)NOCCN2CCN(C)CC2)cc1)c1ccccc1
B. COC(=O)c1cc2c(cc1C)/C(=C(/Nc1ccc(C(=O)NOCCN(C)C)c(C)c1)c1ccccc1)C(=O)N2
C. COC(=O)c1cc2c(cc1C)/C(=C(/Nc1ccc(C(=O)NOCCN3CCN(C)CC3)cc1)c1ccccc1)C(=O)N2
Qu. Sort entries by Vd from minimum to maximum value. Sort and list the labels as requested.
Ans. B, A, C
(B: 23 L/kg, A: 39 L/kg, C: 63 L/kg)
